Catalogue of compounds with associated normalized growth
- ASSAY: chemical genetic growth profiling, strain panel (AID 1159580);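 also: tested at 20 µM; growth read once vehicle control cultures reached saturation at 30 °C; 1 = growth at the plate median or of vehicle wells; lower values mean less growth of the strain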
- MEASUREMENT_CONTEXT: S. cerevisiae deletion strains, growth OD, locus YGR092W, strain DBF2, hits give low values
Screen size: about 5,500 compounds; about 2,000 (36%) were called active. Not shown: some 18% with an inconclusive outcome. This is one part of the list.
// keep it numeric: no unit symbol after the value

CC(C)(C)NC(=S)N/N=C\c1ccccc1O    0.692

Query: For the compound shown here, CC(NC(=S)N/N=C\c1ccccc1O)c1ccccc1 (stereo unspecified) , give the reported normalized growth.
Response: 0.897

Query: For the compound shown here, `CC(C)(C)C(=O)NC(=S)N/N=C\c1cc(Cl)cc(Cl)c1O` , give the reported normalized growth.
Response: 0.165

Query: For the compound shown here, OC1(C(F)(F)F)CC(c2ccc3ccccc3c2)=NN1 (stereo unspecified) , give the reported normalized growth.
Response: 0.198

Query: For the compound shown here, `O=C1/C(=C/c2ccccn2)CCc2ccccc21` , give the reported normalized growth.
Response: 0.813

Query: For the compound shown here, Cc1nnc2n1N=C(c1ccc(CC(C)C)cc1)C(C)S2 (stereo unspecified) , give the reported normalized growth.
Response: 0.971

---

- ASSAY: chemical genetic growth profiling, strain panel (AID 1159580);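 also: tested at 20 µM; growth read once vehicle control cultures reached saturation at 30 °C; 1 = growth at the plate median or of vehicle wells; lower values mean less growth of the strain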
- MEASUREMENT_CONTEXT: S. cerevisiae deletion strains, growth OD, locus YJL129C, strain trk1
In all, about 5,500 compounds went through this assay and about 2,000 (36%) were called active. Inconclusive results (about 18%) are left out. Rule as the data show it: active = normalized growth mostly below about 0.91 (no sharp cut-off); inconclusive = no clear call, values can overlap the other calls; inactive = mostly above about 0.92. This is one part of the list.
// classify into T = active, F = inactive

Field: example entries. Status: answers known.
COc1cccc2c(C)cc(=O)[nH]c12    F
COC(=O)c1c(C)cc(O)cc1O    F
CC1(C)C=CC(=O)[C@@]2(C)C1CC(=O)[C@]1(C)C2CC[C@@]2(C)[C@H](c3ccoc3)OC(=O)C3OC321 (some centres undefined)    F
CC1(C)C2CC(=O)[C@]3(C)C(CC[C@@]4(C)[C@H](c5ccoc5)OC(=O)[C@H]5O[C@]543)[C@@]2(C)C(=O)C[C@H]1O (some centres undefined)    F
Cc1[nH]ccc2c1[nH]c1cc(=O)ccc12    F
CCCCOc1cc(C(=O)NCCN(CC)CC)c2ccccc2n1    F
CCN(Cc1ccncc1)C(=O)C(CO)c1ccccc1 (centres undefined)    F
CCOC(=O)c1c(C)cc(OC)cc1O    F

Query: Please state the recorded outcome for this compound: `CCCCCc1c2c(cc(O)c1C(=O)O)OC(=O)c1c(cc(OC)cc1C(=O)CCCC)O2`
Response: F

---

Catalogue of compounds with associated normalized growth
- ASSAY: chemical genetic growth profiling, strain panel (AID 1159580);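 also: tested at 20 µM; growth read once vehicle control cultures reached saturation at 30 °C; 1 = growth at the plate median or of vehicle wells; lower values mean less growth of the strain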
- MEASUREMENT_CONTEXT: S. cerevisiae deletion strains, growth OD, locus YLR113W, strain HOG1, hits give low values
Hit rate of the full screen: of about 5,500 compounds, about 2,000 (36%) were called active. Another 18% or so got no clear call; they are omitted. This is one part of the list. Where a SMILES comes first, the peptide text is derived from it.
// keep it numeric: no unit symbol after the value

Take a look at these entries with their results.
CCc1cc(C(N)=S)ccn1    1.04
Oc1cc2c(cc1O)C1c3ccc(O)c(O)c3OCC1(O)C2 (stereo not drawn)    1.07
Oc1ccc2c(c1)OCC1(O)Cc3cc(O)c(O)cc3C21 (stereo not drawn)    1.05
O=C(O)Cc1cnc[nH]1    1
CC(=O)[C@@]1(O)CCC2C3C[C@H](C)C4=CC(=O)C=CC4(C)[C@@]3(F)[C@@H](O)C[C@@]21C (stereo partly drawn)    0.988

Query: For the compound shown here, COC(=O)[C@H](Cc1ccccc1)NC(=O)[C@@H](N)CC(=O)O (H-Asp-Phe-OMe) , give the reported normalized growth.
Response: 0.969

Query: For the compound shown here, C[C@H]1O[C@H](OC2[C@@H](O)[C@@H](O)C(O)[C@H](O)[C@H]2O)[C@@H](N)C[C@@H]1N=C(N)C(=O)O (stereo partly drawn) , give the reported normalized growth.
Response: 0.983

Query: For the compound shown here, `Cc1cc(C2CCCCC2)n(O)c(=O)c1` , give the reported normalized growth.
Response: 0.121
